Hey, just so you know, these numbers are from patent US20240043533A1.

measured target: T1, human LILRA5 (human, UniProt A6NI73 42-299)
T1 construct: whole, on cells
T1 sequence (A6NI73 42-299): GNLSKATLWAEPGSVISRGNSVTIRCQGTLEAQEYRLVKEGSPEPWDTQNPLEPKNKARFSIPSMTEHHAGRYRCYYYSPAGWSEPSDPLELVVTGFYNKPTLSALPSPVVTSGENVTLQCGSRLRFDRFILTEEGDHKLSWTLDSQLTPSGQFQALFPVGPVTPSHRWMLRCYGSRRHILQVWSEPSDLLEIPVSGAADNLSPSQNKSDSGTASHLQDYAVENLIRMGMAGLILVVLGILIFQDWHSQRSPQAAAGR
test method notes: FACS on cells expressing human LILRA5, labeled anti-mouse Fc secondary antibody
experimental endpoint: binding result

[[record]]
binder = "anti-ILT3 antibody 16C5 (antibody, V domains shown, Mouse monoclonal antibody from hybridoma) VH: EVQLQQSGPELVKPGASVKISCKASGYTFTDYNMDWVKQSHGKSLEWIGYIYPSNGGTGYNQKFKSKATLTVDKSSNTAYMELHSLTSEDSAVYYCARVPYYDYLYYYAMDYWGQGTSVTVSS VL: QIVLSQSPAILSASPGEKVTMACRASSSVSFMHWYQQKPGSSPQPWIYATSNLASGVPARFSGSGSGTSYSLTISRVEAEDAATYYCQQWSTNPYMYTFGGGTKLEIK"
assay_result = "binds"

